Biological target: T1, human IFNAR-1 protein (form not stated) (human, UniProt P17181 28-436, limits assumed)
T1 construct: bispecific ELISA
T1 sequence (looked up): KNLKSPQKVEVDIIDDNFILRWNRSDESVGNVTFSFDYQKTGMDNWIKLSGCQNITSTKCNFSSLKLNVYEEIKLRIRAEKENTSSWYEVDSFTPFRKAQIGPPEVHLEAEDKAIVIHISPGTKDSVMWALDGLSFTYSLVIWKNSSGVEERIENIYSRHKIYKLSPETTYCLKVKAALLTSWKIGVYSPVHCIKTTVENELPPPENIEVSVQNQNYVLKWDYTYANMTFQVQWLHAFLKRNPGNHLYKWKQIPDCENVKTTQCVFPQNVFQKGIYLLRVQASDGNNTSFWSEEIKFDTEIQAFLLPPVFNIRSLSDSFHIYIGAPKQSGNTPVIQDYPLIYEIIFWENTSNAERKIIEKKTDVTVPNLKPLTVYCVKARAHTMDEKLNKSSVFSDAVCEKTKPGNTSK
Test: affinity ranking of expressed humanized 485G10 IgGs (method not named)
Give measured koff for each item. Keep answers brief.
Entry format: amount then unit.

- binder: "485G10 humanized VH2 + VL2 (antibody, V domains shown, Humanized IgG expressed in HEK293; also called VH2 + VL2 (485G10)) VH: QVQLVQSGAEVKKPGASVKLSCKASGFNIKDYYIHWVKQAPGQGLEWIGRIDPEDAETKYAPKFQGRVTMTADTSISTAYMELSRLRSDDTVVYYCGRYHGYWALDYWGQGTLVTVSS VL: DIQMTQSPSSLSTSVGDRVTITCKTSQNVGTNVAWYQQKPGKAPKPLIYSTSYRYSGVPSRFSGSGSGTDFTLTISSLQPEDFATYYCHQYFSYPYTFGPGTKVDIK"
  koff: "0.000298 s⁻¹"

Task: Could you tell me which koff is on file for 485G10 humanized VH0 + VL1 (antibody, V domains shown, Humanized IgG expressed in HEK293; also called VH0 + VL1 (485G10)) VH: QVQLVQSGAEVKKPGASVKVSCKASGFNIKDYYIHWVRQAPGQGLEWMGRIDPEDAETKYAPKFQGRVTMTRDTSISTAYMELSRLRSDDTVVYYCARYHGYWALDYWGQGTLVTVSS VL: DIQMTQSPSSLSASVGDRVTITCKTSQNVGTNVAWFQQKPGKAPKSLIYSTSYRYSGVPSRFSGSGSGTDFTLTISSLQPEDFATYYCHQYFSYPYTFGPGTKVDIK ?
Result: 0.00475 s⁻¹
